Target: T1, β-catenin (UniProt P35222 1-781, limits assumed)
T1 construct: also called beta-catenin
T1 sequence (looked up): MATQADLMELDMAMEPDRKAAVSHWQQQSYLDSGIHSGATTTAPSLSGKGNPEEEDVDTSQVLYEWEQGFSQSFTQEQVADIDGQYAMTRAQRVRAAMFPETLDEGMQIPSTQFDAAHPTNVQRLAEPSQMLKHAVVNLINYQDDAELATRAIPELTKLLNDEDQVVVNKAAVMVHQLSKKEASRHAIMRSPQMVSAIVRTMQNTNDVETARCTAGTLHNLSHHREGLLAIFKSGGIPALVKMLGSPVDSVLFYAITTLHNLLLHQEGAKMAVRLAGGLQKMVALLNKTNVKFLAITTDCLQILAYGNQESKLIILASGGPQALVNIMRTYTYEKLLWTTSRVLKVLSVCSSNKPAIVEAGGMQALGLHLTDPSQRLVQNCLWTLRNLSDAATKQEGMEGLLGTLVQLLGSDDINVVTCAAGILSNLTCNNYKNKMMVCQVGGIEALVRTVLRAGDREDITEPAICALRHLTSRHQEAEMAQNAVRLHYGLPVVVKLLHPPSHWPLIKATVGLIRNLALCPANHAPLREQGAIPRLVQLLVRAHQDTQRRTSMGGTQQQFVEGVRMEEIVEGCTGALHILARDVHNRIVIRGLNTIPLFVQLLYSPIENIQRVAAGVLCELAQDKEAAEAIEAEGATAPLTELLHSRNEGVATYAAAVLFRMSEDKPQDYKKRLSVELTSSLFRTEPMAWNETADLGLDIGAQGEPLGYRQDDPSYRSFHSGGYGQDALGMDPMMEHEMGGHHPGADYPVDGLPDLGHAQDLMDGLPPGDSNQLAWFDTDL
Assay: ALPHA Screen (BCL9/β-catenin);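 also: bead proximity readout with the polypeptide linked to donor beads and β-catenin fixed on acceptor beads, their binding bringing the beads close enough to emit signal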
pIC50: −log10 of the molar value. Bridges are numbered along the chain shown (N, C = ends). Where no end group is shown, it is not given here. [ ]: non-standard residue; d: D form. The star is where a group is joined. 2Nal = N[C@@H](Cc1ccc2ccccc2c1)C(=O)O; NMeQ = CN[C@@H](CCC(N)=O)C(=O)O; αMeL = CC(C)C[C@](C)(N)C(=O)O; Cba = N[C@@H](CC1CCC1)C(=O)O; S5 = C=CCCC[C@](C)(N)C(=O)O; Nle = CCCC[C@H](N)C(=O)O; Hexanoyl = CCCCCC(=O)*
Measured pIC50 values are reported for all entries that follow.

>  <BINDER>
Ac-LQTLR[S5]IQR[S5]L[2Nal]PD-NH2 (staple 6-10; not fully specified; printed as LQTLRXIQRXL(2-Nal)PD) [SEQ ID NO: 32]

>  <pIC50>
4.92

$$$$
>  <BINDER>
RERSLQTLR[Nle]IQR[Nle]L[2Nal] [SEQ ID NO: 60]

>  <pIC50>
5.62

$$$$
>  <BINDER>
Ac-RERSLQTLR[S5]IQR[S5]L[2Nal]-NH2 (staple 10-14; not fully specified; printed as RERSLQTLRXIQRXL(2-Nal)) [SEQ ID NO: 5]

>  <pIC50>
5.84

$$$$
>  <BINDER>
Hexanoyl-L[NMeQ]TLR[S5]IQR[S5][Cba][2Nal]-NH2 (staple 6-10; also: N-methyl-Gln at 2: filing says both D and L) [SEQ ID NO: 136]

>  <pIC50>
5.45

$$$$
>  <BINDER>
Ac-L[NMeQ]T[αMeL]R[S5]IQR[S5][Cba][2Nal]-NH2 (staple 6-10; not fully specified; printed as L(N-methylQ)T(α-methylL)RXIQRX(CBA)(2-Nal)) [SEQ ID NO: 126]

>  <pIC50>
5.13

$$$$
